pKi: −log10 of the molar value.
Record: pKi reported on human 5-HT5A receptor (Homo sapiens).

COc1cc(C#N)ccc1C1=C(F)CCc2ccc(C(=O)N=C(N)N)cc21 [Example 2-166]; 8.52 to 9.52

Item: COc1cc(C#N)ccc1C1=CCCc2ccc(C(=O)N=C(N)N)cc21 [Example 2-55] | System: human 5-HT5A receptor (Homo sapiens) | pKi: 8.52 to 9.52

---

# assayed.target: human 5-HT5A receptor (Homo sapiens, UniProt P47898)
# Sequence (P47898 whole entry): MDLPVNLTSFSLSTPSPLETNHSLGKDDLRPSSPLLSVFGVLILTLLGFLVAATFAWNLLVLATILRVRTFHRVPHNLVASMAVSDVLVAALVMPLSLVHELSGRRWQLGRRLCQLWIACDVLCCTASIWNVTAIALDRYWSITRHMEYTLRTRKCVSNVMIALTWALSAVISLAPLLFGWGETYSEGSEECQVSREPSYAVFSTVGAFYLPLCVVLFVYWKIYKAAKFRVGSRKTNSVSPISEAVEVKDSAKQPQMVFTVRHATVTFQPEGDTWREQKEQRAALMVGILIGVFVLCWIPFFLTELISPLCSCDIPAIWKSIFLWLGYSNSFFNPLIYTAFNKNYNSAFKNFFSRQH
pKi: −log10 of the molar value.
The reader will find reported pKi values listed item by item below.

Item: NC(N)=NC(=O)c1ccc2c(c1)C(c1ccccc1)CCC2 (stereo not drawn) [Example 3-02] | System: human 5-HT5A receptor (Homo sapiens, UniProt P47898) | pKi: 7.52 to 8.52

Item: NC(N)=NC(=O)c1cc(F)c2c(c1)C(c1c(F)cc(F)cc1F)=CCO2 [Example 1-85] | System: human 5-HT5A receptor (Homo sapiens, UniProt P47898) | pKi: 7.52 to 8.52

Item: NC(N)=NC(=O)c1ccc2scc(-c3ccc(F)cc3)c2c1 [Example 3-25] | System: human 5-HT5A receptor (Homo sapiens, UniProt P47898) | pKi: 8.52 to 9.52

Item: CC1(C)C=C(c2ccc(F)cc2F)c2cc(C(=O)N=C(N)N)ccc2O1 [Example 1-105] | System: human 5-HT5A receptor (Homo sapiens, UniProt P47898) | pKi: 7.52 to 8.52

Item: N#Cc1ccc(C2=CCSc3ccc(C(=O)N=C(N)N)cc32)cc1 [Example 3-17] | System: human 5-HT5A receptor (Homo sapiens, UniProt P47898) | pKi: 7.52 to 8.52

Item: CC1=C(c2ccc(C)cc2C)c2cc(C(=O)N=C(N)N)ccc2CC1 [Example 2-164] | System: human 5-HT5A receptor (Homo sapiens, UniProt P47898) | pKi: 8.52 to 9.52
